Taken from PubChem BioAssay (NCI).

# System: SNB-75 CNS
# RUN_DESCRIPTION: NCI tumour cell line growth inhibition, 48 h
TEST_READOUT: TGI

>>> obs_value("CN(C)CCONC(=O)C12CC3CC(CC(C3)C1)C2")
"> 100 µM"
>>> obs_value("Cc1cc2cn3c4ccc(O)cc4nc(N)c3c2cc1C")
"9.75 µM"
>>> obs_value("COc1cc(-c2nc3ccc(N4CCN(C)CC4)cc3[nH]2)c(OC)c2[nH]c(CO)nc12")
"> 100 µM"
>>> obs_value("Nc1c(C(=O)c2cccc(OC[C@@H](O)CO)c2)cnn1-c1ccc(F)cc1")
"> 25 µM"
>>> obs_value("COc1cccc2c1O/C(=C\\c1ncc([N+](=O)[O-])n1C)C2=O")
"3.97 µM"
>>> obs_value("CCOC(=O)[C@@H]1[C@@H]2NC(=O)N[C@@]1(C)Oc1ccccc12")
"> 100 µM"
>>> obs_value("ONCCCn1cnc2c(NC3CC3)ncnc21")
"> 100 µM"
